Values from PubChem BioAssay (EPA / NIEHS)

Assay: ATG_NFI_CIS: Attagene CIS-FACTORIAL HepG2 Assay for human Nuclear Factor I (NFI) (AID 2282989)
Conditions: HepG2 cis-regulatory reporter, NFI response element transcription; actives raise or lower the signal
Calls of active or inactive are those of the source. How the source made its calls: active means hit-call score of the fitted dose curve at least 0.9, where 1 is the maximum; inactive means score below 0.9.
API: response.call in active, inactive

Below, 5 compounds whose answers are already recorded.
{"compound": "Cc1ccc([N+](=O)[O-])cc1", "label": "inactive"}
{"compound": "Oc1ccccc1Cl", "label": "inactive"}
{"compound": "c1ccc2c(c1)oc1ccccc12", "label": "inactive"}
{"compound": "Clc1ccccc1Cl", "label": "inactive"}
{"compound": "CN(C)c1ccccc1", "label": "inactive"}

Exercise: Check the results log: what was the call for CC(C)N(Cc1ccccc1)C(=O)C(C)(C)C ?
Solution: inactive

Exercise: Check the results log: what was the call for [O-][Cl+]O ?
Solution: inactive

Exercise: Check the results log: what was the call for CC(C)(C)C(O)(CCc1ccc(Cl)cc1)Cn1cncn1 (centres undefined) ?
Solution: inactive

---

Read-out: Monocyte Chemoattractant Protein-1 (MCP1), CCL2 (gene 6347)
Test: BSK_4H_MCP1: BioMAP Diversity Plus: 4H Assay for Monocyte Chemoattractant Protein-1 (MCP1) Biomarker Activity (AID 2283018)
Conditions: primary human endothelial cells (HUVEC); actives raise or lower the signal
Activity calls are given as the source filed them. Rule for the calls: active = hit-call score of the fitted dose curve at least 0.9, where 1 is the maximum; inactive = score below 0.9.
API: response.call in active, inactive

Below, 5 compounds whose answers are already recorded.
{"compound": "Cn1cc(-c2ccccc2)c(=O)c(-c2cccc(C(F)(F)F)c2)c1", "label": "inactive"}
{"compound": "CO[C@@H]1[C@H](OC(=O)NC(=O)CCl)CC[C@]2(CO2)[C@H]1[C@@]1(C)O[C@@H]1CC=C(C)C", "label": "inactive"}
{"compound": "CN(C)c1ccc(C(=O)c2ccc(N(C)C)cc2)cc1", "label": "inactive"}
{"compound": "Cc1ccc(N)c(N)c1", "label": "inactive"}
{"compound": "Cc1ccc(N)cc1", "label": "inactive"}

Exercise: Check the results log: what was the call for Brc1ccc(Oc2ccccc2)cc1 ?
Solution: inactive

Exercise: Check the results log: what was the call for N#CC(Br)Br ?
Solution: inactive

---

Test: CCTE_Shafer_MEA_dev_mutual_information_norm: CCTE's Neural Network Formation Assay for Mutual Information Normalization, Shafer Lab (AID 2284091)
Activity calls are given as the source filed them. How the source made its calls: active means hit-call score of the fitted dose curve at least 0.9, where 1 is the maximum; inactive means score below 0.9.
API: response.call in Yes for active, No for inactive

Below, 9 compounds whose answers are already recorded.
{"compound": "CNC(=O)Oc1cccc2c1OC(C)(C)C2", "label": "No"}
{"compound": "[O-][Cl+]O", "label": "No"}
{"compound": "CCCCOC(=O)c1ccccc1C(=O)OCc1ccccc1", "label": "No"}
{"compound": "C1=Cc2cccc3cccc1c23", "label": "No"}
{"compound": "Clc1ccc(C(c2ccc(Cl)cc2)C(Cl)Cl)cc1", "label": "Yes"}
{"compound": "ClC1=C(Cl)[C@]2(Cl)[C@H]3[C@H]([C@@H]4C=C[C@H]3C4)[C@@]1(Cl)C2(Cl)Cl", "label": "Yes"}
{"compound": "CN(C)[C@@H]1C(=O)C(C(N)=O)=C(O)[C@@]2(O)C(=O)C3=C(O)c4c(O)cccc4[C@@](C)(O)[C@H]3C[C@@H]12", "label": "No"}
{"compound": "CC(C)(O)c1cnn2c(-c3ccc(F)c(-c4c(F)cccc4C#N)c3)cnc2n1", "label": "Yes"}
{"compound": "CC(C)(C)C(O)(CCc1ccc(Cl)cc1)Cn1cncn1 (stereo not given)", "label": "Yes"}

Exercise: Check the results log: what was the call for O=P(OCCCl)(OCCCl)OCCCl ?
Solution: No
